- System: maltose dehydrogenase (acceptor)
- EXPERIMENT: Substrate specificity of maltose dehydrogenase (acceptor), PMS/NTB assay at 550 nm
- Type: biochemical, Staphylococcus sp. B-0875
- CONDITION_SET: substrate each 0.1M, 0.1 ml, in place of maltose; 37° C., 10 min
Measured Relative Activity (%) values are reported for all entries that follow.
// note: answer is a bare numeric in %

OC[C@H]1O[C@H](O[C@H]2[C@H](O)[C@@H](O)[C@@H](O[C@H]3[C@H](O)[C@@H](O)[C@@H](O[C@H]4[C@H](O)[C@@H](O)[C@@H](O[C@H]5[C@H](O)[C@@H](O)[C@@H](O[C@H]6[C@H](O)[C@@H](O)C(O)O[C@@H]6CO)O[C@@H]5CO)O[C@@H]4CO)O[C@@H]3CO)O[C@@H]2CO)[C@H](O)[C@@H](O)[C@@H]1O (stereo partly shown) [maltohexaose]    28.6
OCC(O)CO [glycerol]    0
O=C(CO)[C@@H](O)[C@H](O)[C@H](O)CO [fructose]    31.4

Continue with the molecule presented below.
Query block: Report the value of Relative Activity (%) obtained on maltose dehydrogenase (acceptor) for O=C[C@H](O)[C@@H](O)[C@H](O)[C@H](O)CO [glucose] .
Result block: 80.0
